System: A549 (non-small cell lung cancer)
Assay: Anticancer activity, inhibition of cell proliferation, A549 (NSCLC)
Type: cell-based
Conditions: Homo sapiens; concentration that inhibits 50% of cell proliferation; A549 (NSCLC); read-out: IC50, A549 (NSCLC)
IC50 values by entry
Provide the reading as a plain figure in nM.

CC(=O)O[C@H]1C(=O)[C@@]2(C)[C@H]([C@H](OC(=O)c3ccccc3)[C@]34OC(=O)O[C@H]3[C@H](OC(=O)[C@H](O)[C@H](CC(C)C)NC(=O)OC(C)(C)C)C(C)=C1C4(C)C)[C@]1(OC(C)=O)CO[C@@H]1C[C@@H]2O: 0.7
CC(=O)O[C@@]12CO[C@@H]1C[C@H](O)[C@@]1(C)C(=O)[C@H](O)C3=C(C)[C@@H](OC(=O)[C@H](O)[C@@H](NC(=O)OC(C)(C)C)c4ccccc4)C[C@@](O)([C@@H](OC(=O)c4ccccc4)[C@H]21)C3(C)C: 1
CC(=O)OC12COC1CC(O)C1(C)C(=O)C(OC(=O)C3CC3)C3=C(C)C(OC(=O)C(O)C(C=C(C)C)NC(=O)OC(C)(C)C)C4OC(=O)OC4(C(OC(=O)c4ccccc4)C21)C3(C)C (stereo not shown): 0.5

Continue with the next compound.
// CCC(=O)OC1C(=O)C2(C)C(O)CC3OCC3(OC(C)=O)C2C(OC(=O)c2ccccc2)C23OC(=O)OC2C(OC(=O)C(O)C(C=C(C)C)NC(=O)OC(C)(C)C)C(C)=C1C3(C)C (stereo not shown) : IC50 value = 0.5

====

Tested on: A549 (non-small cell lung cancer)
Assay: Anticancer activity, inhibition of cell proliferation, A549 (NSCLC)
Type: cell-based
Conditions: Homo sapiens; concentration that inhibits 50% of cell proliferation; A549 (NSCLC); read-out: IC50, A549 (NSCLC)
QUANTITY: IC50 (nM)
Provide the reading as a plain figure in nM.

Solved entries (count: 4):
CC(=O)OC1C(=O)C2(C)C(O)CC3OCC3(OC(C)=O)C2C(OC(=O)c2ccccc2)C23OC(=O)OC2C(OC(=O)C(O)C(NC(=O)OC(C)(C)C)c2ccco2)C(C)=C1C3(C)C (centres unmarked): 0.5
CC(=O)O[C@H]1C(=O)[C@@]2(C)[C@H]([C@H](OC(=O)c3ccccc3)[C@]3(O)C[C@H](OC(=O)[C@H](O)[C@@H](NC(=O)c4ccccc4)c4ccccc4)C(C)=C1C3(C)C)[C@]1(OC(C)=O)CO[C@@H]1C[C@@H]2O [Paclitaxel, reference compound]: 3.6
CC(=O)OC12COC1CC(O)C1(C)C(=O)C(O)C3=C(C)C(OC(=O)C(O)C(C=C(C)C)NC(=O)OC(C)(C)C)C4OC(=O)OC4(C(OC(=O)c4ccccc4)C21)C3(C)C (centres unmarked): 0.2
COC(=O)OC1C(=O)C2(C)C(O)CC3OCC3(OC(C)=O)C2C(OC(=O)c2ccccc2)C23OC(=O)OC2C(OC(=O)C(O)C(C=C(C)C)NC(=O)OC(C)(C)C)C(C)=C1C3(C)C (centres unmarked): 0.5

Continue with the next compound.
// CC(=O)OC12COC1CC(O)C1(C)C(=O)C(OC(=O)N(C)C)C3=C(C)C(OC(=O)C(O)C(C=C(C)C)NC(=O)OC(C)(C)C)C4OC(=O)OC4(C(OC(=O)c4ccccc4)C21)C3(C)C (centres unmarked) : IC50 value = 0.6
